test.target: T1, human CXCR4 (human, UniProt P61073 1-352)
T1 construct: also called hCXCR4; Fusin
T1 sequence (P61073 whole entry): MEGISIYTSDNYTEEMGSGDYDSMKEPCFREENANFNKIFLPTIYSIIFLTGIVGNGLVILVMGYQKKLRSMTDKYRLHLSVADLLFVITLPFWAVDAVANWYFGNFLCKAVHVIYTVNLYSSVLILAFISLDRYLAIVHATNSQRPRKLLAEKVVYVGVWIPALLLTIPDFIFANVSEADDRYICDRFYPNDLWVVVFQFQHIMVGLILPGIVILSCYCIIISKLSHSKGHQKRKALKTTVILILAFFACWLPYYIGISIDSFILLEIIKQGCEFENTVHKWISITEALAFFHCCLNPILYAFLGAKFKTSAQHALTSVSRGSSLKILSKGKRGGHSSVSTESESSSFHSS
assay.name: SPR (Biacore), immobilised CXCR4 lipoparticles
Would you kindly list pKd for each of these binders?
// pKd here means minus log10 of the molar concentration (mol/L)

Incoming: Read the entry ADCX-306 (designed binder, i-body (human NCAM1 domain 1 scaffold)) LQVDIVPSQGEISVGESKFFLCQVAGFQEWVNWFSPNGEKLTPNQQRISVVWNDDSSSTLTIYNANIDDAGIYKCVVTMPHTLNNLDVRTEATVNVKIFQ and write its reported pKd.
Outgoing: 4.66

Incoming: Specify pKd for ADCX-99 (designed binder, i-body (human NCAM1 domain 1 scaffold); also called wild-type i-body ADCX-99) LQVDIVPSQGEISVGESKFFLCQVAGSGSDIRISWFSPNGEKLTPNQQRISVVWNDDSSSTLTIYNANIDDAGIYKCVVYRTGGYRHRALVLGEATVNVKIFQ and stop.
Outgoing: 6.15

Incoming: Supply measured pKd of ADCX-668 (designed binder, i-body (human NCAM1 domain 1 scaffold)) LQVDIVPSQGEISVGESKFFLCQVAGTIWYEQISWFTPNGEKLTPNQQRISVVWNDDSSSTLTIYNANIDDAGIYKCVVWTRPVTSSMHEATVNVKIFQ in your reply.
Outgoing: 4.38

Incoming: Provide pKd value for the following binder: ADCX-272 (designed binder, i-body (human NCAM1 domain 1 scaffold)) LQVDIVPSQGEISVGESKFFLCQVAGHLEVRSISWFSPNGEKLTPNQQRISVVWNDDSSSTLTIYNANIDDAGIYKCVVEQRGRSQSYFSEATVNVKIFQ
Outgoing: 5.80
